Source: PubChem BioAssay (Tox21)

Measured max response, listed per entry for reference.
- testSummary: qHTS RealTime-Glo MT Cell Viability Assay in HEK293 cells - 40 hour (AID 1224874); note: % is set by controls: 0 for no effect and ±100 for the full control effect; nearly all actives have a fitted effect of over 50% in size
- experimentalParameters: RealTime-Glo luminescence; active compounds read low
- From the text: U.S. Tox21 Program National Center for Advancing Translational Sciences [NCATS] NIH Chemical Genomics Center [NCGC] U.S. Environmental Protection Agency [EPA] National Institutes of Environmental Health Sciences [NIEHS] National Toxicology Program [NTP] U.S. Food and Drug Administration [FDA] Tox21 Assay Overview: Measure of cell viability is critical in the cell-base assay. Analysis of cell viability is necessary for the characterization of cell responses to cytotoxic drugs and environmental stress. […]
Records with an inconclusive call do not appear.
measuredProperty: max response (%)

{"compound": "c1ccc(C(O[C@H]2CCCN(CCc3ccc4c(c3)OCO4)C2)c2ccccc2)cc1", "unitOfMeasure": "%", "measuredValue": -24.8}
{"compound": "COC(=O)c1ccc(I)cc1S(=O)(=O)NC(=O)Nc1nc(C)nc(OC)n1", "unitOfMeasure": "%", "measuredValue": 0.658}
{"compound": "Cc1ccccc1S(=O)(=O)O", "unitOfMeasure": "%", "measuredValue": 3.84}
{"compound": "CC(C)(COC(=O)c1ccccc1)COC(=O)c1ccccc1", "unitOfMeasure": "%", "measuredValue": -28.7}
{"compound": "NC(N)=NCCC[C@H](N)C(=O)O", "unitOfMeasure": "%", "measuredValue": 2.97}
{"compound": "CCOC(=O)C(O)c1ccccc1 (stereo not drawn)", "unitOfMeasure": "%", "measuredValue": 4.49}
{"compound": "CC(CSC(=O)c1ccccc1)C(=O)N1C[C@@H](Sc2ccccc2)C[C@H]1C(=O)O (stereo partly drawn)", "unitOfMeasure": "%", "measuredValue": -5.01}
{"compound": "C/C(=C(\\CCOP(=O)(O)O)SC(=O)c1ccccc1)N(C=O)Cc1cnc(C)nc1N", "unitOfMeasure": "%", "measuredValue": 6.16}
{"compound": "Nc1ccc(S(=O)(=O)Nc2ccccc2)cc1", "unitOfMeasure": "%", "measuredValue": 0.381}
{"compound": "c1ccc(CNCCNCc2ccccc2)cc1", "unitOfMeasure": "%", "measuredValue": 7.91}
{"compound": "C=C1[C@H]2CC[C@@H]3[C@H]2C(C)(C)CCC[C@]13C", "unitOfMeasure": "%", "measuredValue": -2.59}
{"compound": "COCC(C)OC(C)=O (stereo not drawn)", "unitOfMeasure": "%", "measuredValue": 8.38}
{"compound": "CCOC(=O)c1cccnc1", "unitOfMeasure": "%", "measuredValue": 1.88}

###

- targetEntity: Cytochrome P450 2C9 (Homo sapiens)
- testSummary: Cytochrome P450 Family 2 Subfamily C Member 9 (CYP2C9) small molecule antagonists: luciferase reporter qHTS assay (AID 1671198); note: nearly all actives have a fitted effect of over 50% in size
- experimentalParameters: P450-Glo CYP2C9 enzyme assay, luciferin luminescence; series mostly up to 115 µM
Records with an inconclusive call do not appear. Calls of active or inactive are those of the source. The call rests on the fitted dose curve; in most records, active means well fitted inhibition curve with a large enough effect in the repeat runs; inconclusive means weak or mixed curves; inactive means no such curve, though single readings can be large or run the other way.
Possible outcomes: t (active), f (inactive)

{"molecule": "COc1ccc(C(=O)N2CCN(CC(=O)N3CCOCC3)CC2)cc1", "assignedCategory": "f"}
{"molecule": "COc1cc(Cl)ccc1Oc1ccc(Cl)cc1Cl", "assignedCategory": "t"}
{"molecule": "CCN(CC)c1ccc2c(-c3ccccc3C(=O)O)c3ccc(=[N+](CC)CC)cc-3oc2c1", "assignedCategory": "t"}
{"molecule": "COc1ccc(C(=O)Nc2nc3ccccc3c(NCc3ccccc3)c2C#N)cc1", "assignedCategory": "t"}
{"molecule": "C1CCCNCCC1", "assignedCategory": "f"}
{"molecule": "CN1C[C@H]2c3ccccc3Oc3ccc(Cl)cc3[C@@H]2C1", "assignedCategory": "f"}
{"molecule": "CCCCCC[C@@H](O)C/C=C\\CCCCCCCC(=O)OC", "assignedCategory": "t"}
{"molecule": "Cc1c(N)cccc1[N+](=O)[O-]", "assignedCategory": "f"}
{"molecule": "CCOC(=O)C(O)c1ccccc1 (stereo not drawn)", "assignedCategory": "f"}
{"molecule": "Cc1ncc(CO)c(C=O)c1O", "assignedCategory": "f"}
{"molecule": "C[C@H]1C[C@H]2[C@@H]3CCC4=CC(=O)C=C[C@]4(C)[C@@]3(Cl)[C@@H](O)C[C@]2(C)[C@@]1(O)C(=O)CO", "assignedCategory": "t"}
{"molecule": "COc1ccc(C)cc1[N+](=O)[O-]", "assignedCategory": "f"}
{"molecule": "O=C1c2ccccc2S(=O)(=O)N1CCCCN1CCN(c2ncccn2)CC1", "assignedCategory": "t"}
{"molecule": "COC(=O)c1ccc(I)cc1S(=O)(=O)NC(=O)Nc1nc(C)nc(OC)n1", "assignedCategory": "t"}
{"molecule": "COc1cc2nc(Cl)nc(N)c2cc1OC", "assignedCategory": "f"}
{"molecule": "O=C(NCC1CN(c2ccc(N3CCOCC3=O)cc2)C(=O)O1)c1ccc(Cl)s1 (stereo not drawn)", "assignedCategory": "t"}
{"molecule": "CC[N+](C)(CC)CCOC(=O)C(O)(c1ccccc1)C1CCCCC1 (stereo not drawn)", "assignedCategory": "f"}
{"molecule": "CCCCCCCCCCO[C@@H]1O[C@H](CO)[C@@H](O)[C@H](O)[C@H]1O", "assignedCategory": "f"}
{"molecule": "C=C(C)C(=O)OCC", "assignedCategory": "f"}
{"molecule": "CC1=CC=C(C(C)C)CC1", "assignedCategory": "t"}
{"molecule": "Nc1ccccc1S(=O)(=O)c1ccccc1", "assignedCategory": "f"}
{"molecule": "COS(=O)(=O)C(F)(F)F", "assignedCategory": "f"}
{"molecule": "CCOC(=O)NCCOc1ccc(Oc2ccccc2)cc1", "assignedCategory": "t"}
{"molecule": "CCOC(=O)COC(=O)c1cc(Oc2ccc(C(F)(F)F)cc2Cl)ccc1[N+](=O)[O-]", "assignedCategory": "t"}
{"molecule": "C/C=C(/C(=C/C)c1ccc(OC(C)=O)cc1)c1ccc(OC(C)=O)cc1", "assignedCategory": "t"}
{"molecule": "CCCCCCCCCOS(=O)(=O)O", "assignedCategory": "t"}
{"molecule": "CCCCOC(=O)CCCCCCCC(=O)OCCCC", "assignedCategory": "t"}
{"molecule": "CCNc1cc(O)ccc1C", "assignedCategory": "t"}

###

- testSummary: qHTS RealTime-Glo MT Cell Viability Assay in HEK293 cells - 24 hour (AID 1224886); note: nearly all actives have a fitted effect of over 50% in size
- experimentalParameters: RealTime-Glo luminescence; series mostly up to 76.8 µM
Records with an inconclusive call do not appear. Active and inactive are the calls of the source. Calls follow the shape of the dose curve; as a rule, active = well fitted cell-killing curve with a large enough effect in the repeat runs; inconclusive = weak or mixed curves, or effect the other way; inactive = flat fitted curve, though single readings scatter.
Possible outcomes: active, inactive

{"molecule": "Cc1cccc(Nc2ccccc2)c1", "assignedCategory": "inactive"}
{"molecule": "CCC(CC)Nc1ccc(C)c(C)c1", "assignedCategory": "inactive"}
{"molecule": "COc1ccc(C(=O)c2ccc(OC)cc2O)c(O)c1", "assignedCategory": "active"}
{"molecule": "COC(=O)c1ccc(I)cc1S(=O)(=O)NC(=O)Nc1nc(C)nc(OC)n1", "assignedCategory": "inactive"}
{"molecule": "O=C(O)c1ccco1", "assignedCategory": "inactive"}
{"molecule": "CN1Cc2cc(C(=O)N3CCC(C4CCNCC4)CC3)ccc2NC(CC(=O)O)C1=O (stereo not drawn)", "assignedCategory": "inactive"}
{"molecule": "CCCCO", "assignedCategory": "inactive"}
{"molecule": "Nc1cccc(S(=O)(=O)c2cccc(N)c2)c1", "assignedCategory": "inactive"}
{"molecule": "CCOC(=O)C1=C[C@]2(CC)CCCN3CCc4c(n1c1ccccc41)[C@@H]32", "assignedCategory": "inactive"}
{"molecule": "COC(C)(C)CCO", "assignedCategory": "inactive"}
{"molecule": "Nc1c(CC(=O)O)cccc1C(=O)c1ccc(Br)cc1", "assignedCategory": "inactive"}
{"molecule": "CCOC(=O)c1cccnc1", "assignedCategory": "inactive"}
{"molecule": "C[N+]1(C)CCC(OC(=O)C(O)(c2ccccc2)C2CCCC2)C1 (stereo not drawn)", "assignedCategory": "inactive"}
{"molecule": "NCCCN1CCOCC1", "assignedCategory": "inactive"}
{"molecule": "CN(C)CCOC(c1ccccc1)c1ccc(Br)cc1 (stereo not drawn)", "assignedCategory": "inactive"}
{"molecule": "CN(C)CCCN1c2ccccc2Sc2ccccc21", "assignedCategory": "inactive"}
{"molecule": "COC(C)OC", "assignedCategory": "inactive"}
{"molecule": "CCN(CC)CCNC(=O)c1cc(Br)c(N)cc1OC", "assignedCategory": "inactive"}
{"molecule": "O=C(O)c1ccccc1Cl", "assignedCategory": "inactive"}
{"molecule": "CCOC(=O)C(F)(F)F", "assignedCategory": "inactive"}
{"molecule": "CCOC(=O)C(O)c1ccccc1 (stereo not drawn)", "assignedCategory": "inactive"}
{"molecule": "O=[N+]([O-])c1ccc2[nH]ncc2c1", "assignedCategory": "inactive"}
{"molecule": "C[N+](C)(C)CCOC(=O)CCC(=O)OCC[N+](C)(C)C", "assignedCategory": "inactive"}
{"molecule": "CC(=O)c1cccc([N+](=O)[O-])c1", "assignedCategory": "inactive"}
{"molecule": "CC(C)(C)Cl", "assignedCategory": "inactive"}
{"molecule": "C[C@H](CCC(=O)O)[C@H]1CC[C@H]2[C@@H]3CC[C@@H]4C[C@H](O)CC[C@]4(C)[C@H]3C[C@H](O)[C@]12C", "assignedCategory": "inactive"}
{"molecule": "CC(=O)c1ccc2c(c1)N(CCCN(C)C)c1ccccc1S2", "assignedCategory": "inactive"}
{"molecule": "CC(C)OC(=O)C(C)N(C(=O)c1ccccc1)c1ccc(F)c(Cl)c1 (stereo not drawn)", "assignedCategory": "inactive"}
